Form field: IC50 (one value per entry).
test system: V. campbellii and A. hydrophila; experiment: Growth inhibition test of SCFAs and MCFAs, ranges over two G− pathogens (Example 15); assay type: cell-based, Vibrio campbellii; Aeromonas hydrophila; conditions: range over V. campbellii and A. hydrophila; LB pH 6
assay-metric: IC50

- molecule: "CCCC(=O)O [Butyrate, butyrate]"
  reported-measurement: "8.97 to 30.9 mM"
- molecule: "CCCCC(=O)O [valerate]"
  reported-measurement: "0.84 to 11.1 mM"

---

test system: Vibrio campbellii; test: Growth inhibition test in liquid medium (OD600); assay type: cell-based; settings: V. campellii; 4-parameter logistic fit; read-out: IC50
pIC50: −log10 of the molar value.
assay-metric: pIC50

- compound: "CC(O)CC(=O)O (stereo not shown) [3-HB, 3-hydroxybutyrate]"
  reported-measurement: 1.28
